Data provenance: patent US20230151091A1

Give koff for every item shown.
assay-system: T1, rat MuSK (rat, UniProt Q62838 22-494, limits assumed)
T1 construct: Coated on Biacore chip (200RU) or ELISA plate
T1 sequence (looked up): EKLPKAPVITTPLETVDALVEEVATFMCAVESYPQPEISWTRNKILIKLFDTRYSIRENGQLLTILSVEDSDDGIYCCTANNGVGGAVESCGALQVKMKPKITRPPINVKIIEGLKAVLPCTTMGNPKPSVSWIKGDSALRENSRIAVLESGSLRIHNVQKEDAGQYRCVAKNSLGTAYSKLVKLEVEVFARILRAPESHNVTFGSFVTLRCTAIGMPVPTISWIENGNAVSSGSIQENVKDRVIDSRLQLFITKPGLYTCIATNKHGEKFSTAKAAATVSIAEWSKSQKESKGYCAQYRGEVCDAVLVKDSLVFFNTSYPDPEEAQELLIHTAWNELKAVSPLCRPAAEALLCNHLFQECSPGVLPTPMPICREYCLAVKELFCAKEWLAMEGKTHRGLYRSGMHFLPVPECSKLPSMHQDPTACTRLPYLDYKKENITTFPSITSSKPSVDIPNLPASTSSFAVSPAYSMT
protocol-details: Biacore, MuSK on chip, association pH 7.4, dissociation pH 5.5
Number only, in s⁻¹; omit the unit.

Record 3B2g1m1 (antibody, human IgG1, V domains shown, human IgG1-LALA backbone; produced in HEK293 cells) VH: EVQLLESGGGLVQPGGSLRLSCAASGFTFSDYGMSWVRQAPGKGLEWVSAIPWSGGSTYYKESVKGRFTISRDNSKNTLYLQMNSLRAEDTAVYYCAKRSGRIAFGALDAWGQGTLVTVSS VL: QTVVTQEPSFSVSPGGTVTLTCGLSSGSVTSSNYPDWYQQTPGQAPRTLIYSTDSRHSGVPDRFSGSILGNKAALTITGAQADDESDYYCGLYMYSGSKNYVFGGGTKLTVL , field koff: 0.00595

Record 3B2g2m4 (antibody, human IgG1, V domains shown, human IgG1-LALA backbone; produced in HEK293 cells) VH: EVQLLESGGGLVQPGGSLRLSCAASGFTFSDYGMSWVRQAPGKGLEWVSAIPWQGGSTYYKESVKGRFTISRDNSKNTLYLQMNSLRAEDTAVYYCAKRSGRIAFGALDAWGQGTLVTVSS VL: QTVVTQEPSFSVSPGGTVTLTCGLSSGSVTSSNYPDWYQQTPGQAPRTLIYSTDSRHSGVPDRFSGSILGNKAALTITGAQADDESDYYCGLYSYSGSKNYVFGGGTKLTVL , field koff: 0.00538

Record 3B2g2m1 (antibody, human IgG1, V domains shown, human IgG1-LALA backbone; produced in HEK293 cells; also called MuSK agonist antibody 3B2g2m1; MuSK-mAb 3B2g2m1) VH: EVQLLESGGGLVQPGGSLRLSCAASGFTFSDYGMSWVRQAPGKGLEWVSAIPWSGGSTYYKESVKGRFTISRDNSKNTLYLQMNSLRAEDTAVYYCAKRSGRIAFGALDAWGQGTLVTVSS VL: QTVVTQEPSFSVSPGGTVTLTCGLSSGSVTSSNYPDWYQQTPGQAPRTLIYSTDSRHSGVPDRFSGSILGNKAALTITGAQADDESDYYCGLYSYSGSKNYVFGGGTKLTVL , field koff: 0.00555
